# protocol_summary: Toxicity liver stage against HepG2, at 10uM
# Format: cell-based
# Parameters: test concentration 10 uM, cell line HepG2-A16-CD81EGFP
# experimental_context: human, HepG2-A16-CD81EGFP cells; read-out: INHIBITION
readout_type: cytotoxicity at 10 µM (%)
Return type: number; implicit unit %.

Example entries and their recorded answers appear below.
CN(C)c1nc2c(c(=O)[nH]1)CCN(C(=O)c1ccc(=O)[nH]c1)C2 = 10.2
COCCNS(=O)(=O)c1cccc2c1CN(C(=O)c1ccoc1)CC2 = -3.88
CNC(=O)[C@@H]1C[C@@H](NC(=O)Cc2nonc2C)CN1Cc1sccc1C = -4.42
Cc1cc(C)nc(CN(C)C(=O)c2cccc(CCC(C)(C)O)c2)c1 = -3.25
CC(=O)N1N=C(c2cccs2)OC1C(=O)NCCc1cccc(Cl)c1 (stereo unspecified) = -1.66

Could you now look at the following molecule, please?
Can you look up the measured cytotoxicity at 10 µM of Cc1ccc(NC2CCN(C(=O)c3c(C)nn(C)c3Cl)CC2)nn1 for me? -11.6

----------
# protocol_summary: Toxicity liver stage against HepG2, at 10uM
# Assay type: cell-based
# Set-up: test concentration 10 uM, cell line HepG2-A16-CD81EGFP
# experimental_context: human, HepG2-A16-CD81EGFP cells; read-out: INHIBITION
readout_type: cytotoxicity at 10 µM (%)
Return type: number; implicit unit %.

Example entries and their recorded answers appear below.
CCc1noc(C(C)N(C)CC(=O)Nc2ccc(Cl)c(C(F)(F)F)c2)n1 (stereo not drawn) = 50.1
O=C(NCCn1nc(C2CCNC2)c2cccnc21)c1ccccn1 (stereo not drawn) = -25.7

Can you look up the measured cytotoxicity at 10 µM of CCc1ccc(CNC(=O)CCNc2ncccn2)s1 for me? 3.73

Also, CC(NC(=O)CSCC#N)c1ccccc1 (stereo not drawn) please. -5.9

Also, Cc1ccc(CC(=O)N2CCN(CC(C)O)CC2)cn1 (stereo not drawn) please. -2.37

Also, COc1ccccc1N1CCC(CNC(=O)N(C)Cc2ccco2)C1 (stereo not drawn) please. -146

Also, Cc1ccc(Cl)cc1S(=O)(=O)NCc1cnc(N(C)C)n1C please. 5.17

Also, COc1ncccc1CN1C[C@@H]2CN(c3ncccn3)C[C@@H]2C1 please. -5.11

Also, CN1CCN(C(=O)c2ccc3c(c2)nc(N2CCOCC2)n3C)CC1=O please. 1.22

Also, Cc1cccnc1CC(C)NC1Cc2ccccc2C1 (stereo not drawn) please. 4.69

Also, O=S(=O)(C1CC1)N1CCc2ncnc(-c3ccncc3)c2CC1 please. -3.27

Also, COc1ccc(F)cc1C(=O)N1CCCC(CNS(C)(=O)=O)C1 (stereo not drawn) please. -20

Also, Cc1cnc(N2CCCC3(CCOCC3)C2)nc1 please. -116

Also, Cc1nn(C)c(C)c1C1CCCN1CC(=O)Nc1ccncc1 (stereo not drawn) please. -5.53

Also, O=C(NCC1CCOC1)c1ccc(-c2ccccc2)[nH]c1=O (stereo not drawn) please. -18.3

Also, CCc1cnc(CN2C(=O)CC3(CCSC3)C2=O)o1 (stereo not drawn) please. -9.36

Also, Cc1ccc2nc(C(=O)N(C)[C@@H]3CC[C@@H](N4CCCC4)[C@@H]3O)cn2c1 please. 1.67

Also, COCCCNC(=O)C(C)n1cc(Br)cn1 (stereo not drawn) please. 12.2

Also, O=C1N(CC2CC2)CCCC1(O)CN1CCc2[nH]ncc2C1 (stereo not drawn) please. -2.2

----------
Each item that follows carries a reported cytotoxicity at 10 µM.
# protocol_summary: Toxicity liver stage against HepG2, at 10uM
# Assay type: cell-based
# Set-up: test concentration 10 uM, cell line HepG2-A16-CD81EGFP
# experimental_context: human, HepG2-A16-CD81EGFP cells; read-out: INHIBITION
Return type: number; implicit unit %.

Example entries and their recorded answers appear below.
CCC1=N[C@@]2(CC[C@@H]3CN(CC(=O)N(C)C)C[C@@H]32)C(=O)N1CC1CC1 = -3.5
CN1CCc2nc(N(C)C)nc(N3CCC(O)CC3)c2C1 = -0.879
Cc1cnn(CC2CN(Cc3nccn3C)CCO2)c1 (centres undefined) = -2.06
Cc1ccc(CN2CC[C@H]3OCC[C@@H](C(=O)NC4CC4)[C@@H]3C2)o1 = 5.81
CC(C)(C)OC(=O)N1CCN(c2nnc(Br)s2)CC1 = 10.8
Cc1nnc(NC(=O)NCc2ccnc(N(C)C)c2)s1 = -10.2
CNC(=O)[C@H]1CO[C@H]2CCN(Cc3ccc4ccccc4n3)C[C@H]2C1 = 8.05
Cc1ccc(OCCCC(=O)Nc2nonc2C)cc1C = 7.03

Can you look up the measured cytotoxicity at 10 µM of CC(NC(=O)Nc1nncs1)C(=O)NC1CCCC1 (centres undefined) for me? -5.36

Also, O=C(O)C1CCCN1c1nc(C2CC2)cc(C(F)(F)F)n1 (centres undefined) please. 7.55

Also, CC(C)CC(CNC(=O)c1cccnc1Oc1cccnc1)N(C)C (centres undefined) please. 1.44

Also, CCn1cc(-c2cncn2CCc2ccc3c(c2)OCCO3)cn1 please. 18.7

Also, Cn1cc(CN2CCC3(CC2)CC(=O)Nc2ccccc23)cn1 please. 8.49

----------
# protocol_summary: Toxicity liver stage against HepG2, at 10uM
# Format: cell-based
# Set-up: test concentration 10 uM, cell line HepG2-A16-CD81EGFP
# experimental_context: human, HepG2-A16-CD81EGFP cells; read-out: INHIBITION
readout_type: cytotoxicity at 10 µM
The answer consists of two parts: a number and, after it, its unit.

Example entries and their recorded answers appear below.
COCc1noc(C2(c3ccc(OC)cc3)CCOCC2)n1 = -22.3%
O=C(NC1CC1)C1CNCCN1C(=O)CCc1ccc2c(c1)OCO2 (stereo not drawn) = -0.766%

Can you look up the measured cytotoxicity at 10 µM of CN1CCN(C)C(c2nnc3ccc(C(=O)N4CCOCC4)cn23)C1 (stereo not drawn) for me? -130%

Also, COc1cccc(OCC2CCCN(C(=O)c3ncoc3C3CC3)C2)c1 (stereo not drawn) please. 3.79%

Also, c1cc(-c2nc3c(c(NCCc4c[nH]cn4)n2)CCNCC3)ccn1 please. -146%

Also, Clc1ccc(-n2cnnc2CCCN2CCOCC2)cc1 please. 5.52%

Also, COCCN(Cc1cccnc1)S(=O)(=O)c1ccc(F)cc1C please. -5.06%

----------
Each item that follows carries a reported cytotoxicity at 10 µM.
# protocol_summary: Toxicity liver stage against HepG2, at 10uM
# Assay type: cell-based
# Parameters: test concentration 10 uM, cell line HepG2-A16-CD81EGFP
# experimental_context: human, HepG2-A16-CD81EGFP cells; read-out: INHIBITION
Return type: number; implicit unit %.

Example entries and their recorded answers appear below.
COCCN1C(=O)CCC12CCCN(c1ncc(F)cn1)CC2 (stereo not given) = -8.92
CCn1cc2c(n1)CN(Cc1nccs1)CC2COCC1CC1 (stereo not given) = 6.07
CC(=O)NCCNC(=O)c1cnc(C(C)(C)C)s1 = -2.17
CSc1cccc(CN2CCC(CCC(=O)NC3CC3)CC2)c1 = 1.28

Could you now look at the following molecule, please?
Can you look up the measured cytotoxicity at 10 µM of O=C1CCC(=O)N1c1nn(Cc2ccc(F)cc2)cc1Cl for me? -13.2

----------
Each item that follows carries a reported cytotoxicity at 10 µM.
# protocol_summary: Toxicity liver stage against HepG2, at 10uM
# Assay type: cell-based
# Set-up: test concentration 10 uM, cell line HepG2-A16-CD81EGFP
# experimental_context: human, HepG2-A16-CD81EGFP cells; read-out: INHIBITION
Return type: number; implicit unit %.

Example entries and their recorded answers appear below.
Cc1nc(C)c(CN2CCOC[C@H](Oc3cnccn3)C2)s1 = -5.33
CC(C)C(C(=O)NCC1CC1)n1cnc2cc(F)c(F)cc21 (stereo not drawn) = 3.26
O=C1N(CC2CC2)CCC12CCN(c1ncccn1)CC2 = 3.77

Can you look up the measured cytotoxicity at 10 µM of Cc1cnn(CC(=O)N2CCC3(CCC(=O)N(CCCO)C3)CC2)c1 for me? -9.44

Also, CCOCC(=O)Nc1cccnc1-n1ccnc1C please. 3.62

Also, CC(C)C(C)(C#N)NC(=O)CN1CCCN(Cc2ccccc2F)CC1 (stereo not drawn) please. -5.84

----------
Each item that follows carries a reported cytotoxicity at 10 µM.
# protocol_summary: Toxicity liver stage against HepG2, at 10uM
# Format: cell-based
# Set-up: test concentration 10 uM, cell line HepG2-A16-CD81EGFP
# experimental_context: human, HepG2-A16-CD81EGFP cells; read-out: INHIBITION
Return type: number; implicit unit %.

COc1cccc2c1OCC(Cc1cc(C(=O)N3CCCC3)ccn1)C2 (stereo not drawn) = 5.15

Can you look up the measured cytotoxicity at 10 µM of Cc1nn(C)c(Cl)c1C1CCCN1CCc1ccccn1 (stereo not drawn) for me? 4.6

Also, CCOc1ncc(NC(=O)c2ccco2)c(OCC)n1 please. -1.76

Also, CCN1CC(CN2CCOCC2)Oc2ncccc2C1=O (stereo not drawn) please. -1.1
